All figures here come from patent US10781188B2.

assay: Relaxivity r1p in physiologic solution (saline), 37° C.; assay type: physicochemical; settings: 1.41 T (60 MHz)
# maps each entry to its r1p at 1.41 T 37° C., saline
experimental endpoint: r1p at 1.41 T 37° C., saline (mM⁻¹ s⁻¹)

| compound | experimental endpoint | unit label | measured |
| --- | --- | --- | --- |
| O=C(O)CN1CCN(CC(=O)O)CCN(CC(O)CN(CCOCCO)CCOCCO)CCN(CC(=O)O)CC1 (stereo not shown) [Chelate Complex 14] | r1p at 1.41 T 37° C., saline | mM⁻¹ s⁻¹ | 6.5 |
| O=C(O)CN1CCN(CC(=O)O)CCN(CC(O)CN(CC(=O)O)C(CO)CO)CCN(CC(=O)O)CC1 (stereo not shown) [Chelate Complex 13] | r1p at 1.41 T 37° C., saline | mM⁻¹ s⁻¹ | 5.9 |
| CN(CC(O)CN1CCN(CC(=O)O)CCN(CC(=O)O)CCN(CC(=O)O)CC1)CC(O)C(O)C(O)C(O)CO (stereo not shown) [Chelate Complex 21] | r1p at 1.41 T 37° C., saline | mM⁻¹ s⁻¹ | 6.1 |
| O=C(O)CN1CCN(CC(=O)O)CCN(CC(=O)O)CCN(CC(=O)O)CC1 [Doratem ®, Gd-DOTA, reference compound] | r1p at 1.41 T 37° C., saline | mM⁻¹ s⁻¹ | 3.2 |
